Target: UniProt:A0A097I315
Experiment: cell-based
Conditions: Cell-based assay (EC50)
Consider the following molecules; for each one, report its pEC50.
Numbers only, as −log10 of the molar value.

Answered cases to consult:
molecule: CC(C)C[C@H](NC(=O)OC[C@@H]1C[C@H]1c1cccc(F)c1)C(=O)N[C@H](C=O)C[C@H]1CCNC1=O [Compound C5c]
numeric-readout: 5.67

molecule: CC(C)C[C@H](NC(=O)OCCSc1ccccc1)C(=O)N[C@@H](C[C@@H]1CCNC1=O)C(O)S(=O)(=O)O (some centres unmarked) [Compound D8d]
numeric-readout: 5.71

molecule: CC(C)C[C@H](NC(=O)OC[C@@H]1C[C@H]1c1ccc(F)cc1)C(=O)N[C@H](C=O)C[C@H]1CCNC1=O [Compound C7c]
numeric-readout: 5.70

molecule: CC(C)C[C@H](NC(=O)OCc1ccccc1)C(=O)N[C@@H](C[C@@H]1CCNC1=O)C(=O)C(=O)NC1CC1 [Compound E6b]
numeric-readout: 5.06

Record pEC50 per entry; entries follow.
1. CC(C)C[C@H](NC(=O)OC[C@@H]1C[C@H]1c1ccccc1)C(=O)N[C@H](C=O)C[C@H]1CCNC1=O [Compound C1c]
2. CC(C)C[C@H](NC(=O)OC[C@@H]1C[C@H]1c1ccccc1)C(=O)N[C@@H](C[C@H]1CCNC1=O)C(O)S(=O)(=O)O (some centres unmarked) [Compound C1d]
3. CC(C)C[C@H](NC(=O)[C@H](Cc1cccc2ccccc12)NC(=O)OCc1ccccc1)C(=O)N[C@@H](C[C@@H]1CCNC1=O)C(=O)C(=O)NC(C)C [Compound E6]
4. CC(C)C[C@H](NC(=O)OCc1ccccc1)C(=O)N[C@@H](C[C@@H]1CCNC1=O)C(=O)C(=O)NC(C)(C)C [Compound E6g]
5. CC(C)C[C@H](NC(=O)OC[C@H]1[C@H](c2ccccc2)C1(F)F)C(=O)N[C@H](C=O)C[C@H]1CCNC1=O [Compound C2c]
6. CC(C)C[C@H](NC(=O)OCCSc1ccccc1)C(=O)N[C@H](C=O)C[C@@H]1CCNC1=O [Compound D8c]
7. [2H]C([2H])(OC(=O)N[C@@H](CC(C)C)C(=O)N[C@H](C=O)C[C@@H]1CCNC1=O)C(C)(C)Oc1cccc(Cl)c1 [Compound D14c]

5.50
5.49
6.82
5.24
5.92
5.76
5.47

Provide reported pEC50 for each item, in the same order as listed.
1. CC(C)C[C@H](NC(=O)OC[C@@H]1C[C@H]1c1ccc(F)cc1)C(=O)N[C@@H](C[C@H]1CCNC1=O)C(O)S(=O)(=O)O (some centres unmarked) [Compound C7d]
2. CCOC(=O)CNC(=O)C(=O)[C@H](C[C@@H]1CCNC1=O)NC(=O)[C@H](CC(C)C)NC(=O)OCc1ccccc1 [Compound E6d]

5.67
5.04

====

Target: FMDV 3Cpro (Foot-and-mouth disease virus A, UniProt A0A097I315)
Experiment: biochemical
Details: FRET assay (IC50)
measure: IC50 (nM)
Give bare numbers, in nM.

As a guide, the following entries are already answered.
molecule: CC(C)C[C@H](NC(=O)OCC(C)(C)[S+]([O-])c1ccccc1)C(=O)N[C@H](C=O)C[C@@H]1CCNC1=O (stereo partly drawn)
IC50 (nM): 1140
--
molecule: CC(C)C[C@H](NC(=O)[C@H](Cc1cccc2ccccc12)NC(=O)OCc1ccccc1)C(=O)N[C@@H](C[C@@H]1CCNC1=O)C(=O)C(=O)NC(C)C
IC50 (nM): 60
--
molecule: CC(C)C[C@H](NC(=O)OC[C@@H]1C[C@H]1Cc1ccccc1)C(=O)N[C@@H](C[C@H]1CCNC1=O)C(O)S(=O)(=O)O (stereo partly drawn)
IC50 (nM): 800
--
molecule: CC(C)C[C@H](NC(=O)OCC(C)(C)Oc1cccc(F)c1)C(=O)N[C@H](C=O)C[C@@H]1CCNC1=O [Compound D16c]
IC50 (nM): 780
--
molecule: CC(C)C[C@H](NC(=O)OCC(C)(O)c1cccc(Cl)c1)C(=O)N[C@H](C=O)C[C@@H]1CCNC1=O (stereo partly drawn) [Compound D17c]
IC50 (nM): 2000

Fill blank: measured IC50 of the molecule CC(C)C[C@H](NC(=O)[C@H](Cc1cccc2ccccc12)NC(=O)OCc1ccccc1)C(=O)N[C@H](C=O)C[C@@H]1CCNC1=O [Compound E1] is ____.
50

====

Molecular target: FMDV 3Cpro (Foot-and-mouth disease virus A, UniProt A0A097I315)
Assay: biochemical
Settings: FRET assay (IC50)
Answer each item with its documented IC50.
Remember to follow the number with its unit.

List the reported IC50 of each molecule below.
1. COc1ccccc1[C@@H]1C[C@H]1COC(=O)N[C@@H](CC(C)C)C(=O)N[C@@H](C[C@H]1CCNC1=O)C(O)S(=O)(=O)O (stereo partly drawn) [Compound C11d]
2. COc1ccccc1[C@@H]1C[C@@H]1COC(=O)N[C@@H](CC(C)C)C(=O)N[C@@H](C[C@H]1CCNC1=O)C(O)S(=O)(=O)O (stereo partly drawn) [Compound C12d]
3. CC(C)C[C@H](NC(=O)OC[C@@H]1C[C@H]1c1ccc(F)cc1)C(=O)N[C@H](C=O)C[C@H]1CCNC1=O [Compound C7c]
4. CC(C)C[C@H](NC(=O)OCc1ccccc1)C(=O)N[C@@H](C[C@@H]1CCNC1=O)C(=O)C(=O)NC(C)C [Compound E6a]
5. COc1ccc([C@@H]2C[C@H]2COC(=O)N[C@@H](CC(C)C)C(=O)N[C@H](C=O)C[C@H]2CCNC2=O)cc1 [Compound C10c]

1. 450 nM
2. 510 nM
3. 590 nM
4. 3900 nM
5. 1250 nM

Quick one: IC50 of CC(C)C[C@H](NC(=O)OCC(C)(C)Sc1ccc(F)cc1)C(=O)N[C@@H](C[C@@H]1CCNC1=O)C(O)S(=O)(=O)O (stereo partly drawn) [Compound D6d] ?
980 nM

====

Biological target: UniProt A0A097I315
Experiment: biochemical
Details: FRET assay (IC50)
measure: pIC50
Give bare numbers, as −log10 of the molar value.

Use these answered entries as a reference point.
compound: CCOC(=O)/C=C/[C@H](C[C@@H]1CCNC1=O)NC(=O)[C@@H](CC(=O)[C@@H](NC(=O)c1cc(C)on1)C(C)C)Cc1ccc(F)cc1 [AG7088, Rupintrivir, reference compound]
pIC50: 5.37

compound: CCC[C@@H]1C[C@@H]1COC(=O)N[C@@H](CC(C)C)C(=O)N[C@@H](C[C@H]1CCNC1=O)C(O)S(=O)(=O)O (stereo partly drawn) [Compound C14d]
pIC50: 5.98

compound: CCC[C@@H]1C[C@@H]1COC(=O)N[C@@H](CC(C)C)C(=O)N[C@H](C=O)C[C@H]1CCNC1=O [Compound C14c]
pIC50: 6.20

Would you be so kind as to report pIC50 for each listed record?
1. CCC[C@@H]1C[C@H]1COC(=O)N[C@@H](CC(C)C)C(=O)N[C@@H](C[C@H]1CCNC1=O)C(O)S(=O)(=O)O (stereo partly drawn) [Compound C13d]
2. CC(C)C[C@H](NC(=O)OC[C@@H]1C[C@H]1c1cccc(F)c1)C(=O)N[C@@H](C[C@H]1CCNC1=O)C(O)S(=O)(=O)O (stereo partly drawn)

6.12
6.02

State the recorded pIC50 for this entry: CC(C)C[C@H](NC(=O)OC[C@@H]1C[C@H]1C1CCC(F)(F)CC1)C(=O)N[C@H](C=O)C[C@H]1CCNC1=O [Compound C17c]
6.19

====

Target: FMDV 3Cpro (Foot-and-mouth disease virus A)
Experiment: cell-based
Settings: Cell-based assay (EC50)
Each record gets a class by EC50: class 1 (below 3 µM), class 2 (3 µM to below 7 µM), class 3 (7 µM or more)

Consider the worked cases shown below.
molecule: CC(C)C[C@H](NC(=O)OCC(C)(C)Oc1cccc(Cl)c1)C(=O)N[C@@H](C[C@@H]1CCNC1=O)C(O)S(=O)(=O)O (stereo partly shown) [Compound D13d]
assigned-class: class 3
--
molecule: CC(C)C[C@H](NC(=O)OC[C@@H]1C[C@H]1c1cccc(Cl)c1)C(=O)N[C@@H](C[C@H]1CCNC1=O)C(O)S(=O)(=O)O (stereo partly shown)
assigned-class: class 1
--
molecule: CC(C)C[C@H](NC(=O)OCC(C)(C)Sc1ccc(F)cc1)C(=O)N[C@H](C=O)C[C@@H]1CCNC1=O
assigned-class: class 2
--
molecule: CC(C)C[C@H](NC(=O)OCC(C)(C)[S+]([O-])c1ccccc1)C(=O)N[C@H](C=O)C[C@@H]1CCNC1=O (stereo partly shown)
assigned-class: class 3
--
molecule: COc1ccccc1[C@@H]1C[C@@H]1COC(=O)N[C@@H](CC(C)C)C(=O)N[C@@H](C[C@H]1CCNC1=O)C(O)S(=O)(=O)O (stereo partly shown) [Compound C12d]
assigned-class: class 1
--
molecule: CC(C)C[C@H](NC(=O)OC[C@@H]1C[C@H]1c1cccc(Cl)c1)C(=O)N[C@H](C=O)C[C@H]1CCNC1=O
assigned-class: class 2
--
molecule: CC(C)C[C@H](NC(=O)OC[C@H]1[C@H](c2ccccc2)C1(F)F)C(=O)N[C@@H](C[C@H]1CCNC1=O)C(O)S(=O)(=O)O (stereo partly shown)
assigned-class: class 1
--
molecule: CCC[C@@H]1C[C@H]1COC(=O)N[C@@H](CC(C)C)C(=O)N[C@@H](C[C@H]1CCNC1=O)C(O)S(=O)(=O)O (stereo partly shown) [Compound C13d]
assigned-class: class 2
--
molecule: CC(C)C[C@H](NC(=O)OCC(C)(C)Sc1cccc(F)c1)C(=O)N[C@H](C=O)C[C@@H]1CCNC1=O
assigned-class: class 1
--
molecule: CCOC(=O)/C=C/[C@H](C[C@@H]1CCNC1=O)NC(=O)[C@@H](CC(=O)[C@@H](NC(=O)c1cc(C)on1)C(C)C)Cc1ccc(F)cc1 [AG7088, Rupintrivir, reference compound]
assigned-class: class 3

Looking at CC(C)C[C@H](NC(=O)OCC(C)(C)Oc1cccc(Cl)c1)C(=O)N[C@H](C=O)C[C@@H]1CCNC1=O [Compound D13c] , which class would you pick?
class 2
